Listing of entries alongside the reported MFI.
- assay system: monkey DLL3 on CHO-K1-cyno DLL3 cells (cynomolgus monkey)
- Sequence (chain, as listed by the source limits assumed): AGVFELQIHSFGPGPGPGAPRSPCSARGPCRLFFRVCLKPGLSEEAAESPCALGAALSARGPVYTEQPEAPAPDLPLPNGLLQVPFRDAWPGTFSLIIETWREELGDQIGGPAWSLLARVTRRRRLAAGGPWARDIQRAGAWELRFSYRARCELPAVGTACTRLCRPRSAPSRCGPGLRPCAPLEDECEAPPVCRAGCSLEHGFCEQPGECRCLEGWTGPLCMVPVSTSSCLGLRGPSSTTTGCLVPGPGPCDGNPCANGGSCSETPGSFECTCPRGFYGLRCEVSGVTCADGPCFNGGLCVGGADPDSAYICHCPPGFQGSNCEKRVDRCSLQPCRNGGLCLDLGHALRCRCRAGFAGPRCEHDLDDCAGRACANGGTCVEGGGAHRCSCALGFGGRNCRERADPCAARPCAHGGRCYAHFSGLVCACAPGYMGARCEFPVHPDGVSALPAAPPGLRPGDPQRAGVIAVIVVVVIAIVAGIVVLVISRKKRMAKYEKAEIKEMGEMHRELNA
- experiment description: FACS, CHO-K1-cyno DLL3 cells, 0.00128 nM antibody
Record the value in MFI, omitting the unit from your answer.

Illustrative cases are given below, each with its answer.
>  <binder>
Hab009VL2aVH1-hFc (scFv, part only; not given: VL-VH linker and human IgG1 Fc, V domains shown, not shown: another chain or arm of the molecule; a dimerising Fc or GST; small tags and cut ends) VL: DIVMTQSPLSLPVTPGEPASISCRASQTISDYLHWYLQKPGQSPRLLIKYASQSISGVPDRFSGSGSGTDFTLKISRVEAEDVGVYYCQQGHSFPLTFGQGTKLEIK VH: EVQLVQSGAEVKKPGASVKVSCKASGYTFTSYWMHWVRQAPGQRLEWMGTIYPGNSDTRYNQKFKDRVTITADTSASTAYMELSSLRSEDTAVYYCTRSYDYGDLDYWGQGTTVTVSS

>  <reported endpoint>
MFI

>  <unit label>
MFI

>  <experimental result>
1340

$$$$
>  <binder>
Hab015VL4VH1a-hFc (scFv, part only; not given: scFv linker and human IgG1 Fc, V domains shown, not shown: another chain or arm of the molecule; a dimerising Fc or GST; small tags and cut ends) VL: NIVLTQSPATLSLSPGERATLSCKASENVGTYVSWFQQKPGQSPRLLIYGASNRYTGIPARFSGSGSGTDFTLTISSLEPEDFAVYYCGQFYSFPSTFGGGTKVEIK VH: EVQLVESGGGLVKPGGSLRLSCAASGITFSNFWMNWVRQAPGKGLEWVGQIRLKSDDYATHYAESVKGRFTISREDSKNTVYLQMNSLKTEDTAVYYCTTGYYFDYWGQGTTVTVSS

>  <reported endpoint>
MFI

>  <unit label>
MFI

>  <experimental result>
123

$$$$
>  <binder>
Hab006VL4VH2-hFc (scFv, part only; not given: scFv linker and human IgG1 Fc, V domains shown, not shown: another chain or arm of the molecule; a dimerising Fc or GST; small tags and cut ends) VL: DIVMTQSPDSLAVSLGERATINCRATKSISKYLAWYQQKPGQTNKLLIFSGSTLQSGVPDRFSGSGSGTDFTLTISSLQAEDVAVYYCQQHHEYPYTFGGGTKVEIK VH: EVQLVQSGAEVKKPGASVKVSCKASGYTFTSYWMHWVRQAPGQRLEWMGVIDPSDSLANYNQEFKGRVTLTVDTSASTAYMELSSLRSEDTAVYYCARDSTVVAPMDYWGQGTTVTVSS

>  <reported endpoint>
MFI

>  <unit label>
MFI

>  <experimental result>
276

$$$$
>  <binder>
Hab006VL4VH1-hFc (scFv, part only; not given: scFv linker and human IgG1 Fc, V domains shown, not shown: another chain or arm of the molecule; a dimerising Fc or GST; small tags and cut ends) VL: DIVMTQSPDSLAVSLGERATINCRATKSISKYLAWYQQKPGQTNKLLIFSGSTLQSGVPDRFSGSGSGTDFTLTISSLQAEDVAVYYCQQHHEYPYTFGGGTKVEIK VH: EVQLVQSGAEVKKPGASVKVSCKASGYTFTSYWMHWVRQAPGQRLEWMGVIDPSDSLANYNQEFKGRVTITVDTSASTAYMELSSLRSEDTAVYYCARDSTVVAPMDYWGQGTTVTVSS

>  <reported endpoint>
MFI

>  <unit label>
MFI

>  <experimental result>
239

$$$$

Req: Fill blank: measured MFI of the binder Hab015VL5VH5a-hFc (scFv, part only; not given: scFv linker and human IgG1 Fc, V domains shown, not shown: another chain or arm of the molecule; a dimerising Fc or GST; small tags and cut ends) VL: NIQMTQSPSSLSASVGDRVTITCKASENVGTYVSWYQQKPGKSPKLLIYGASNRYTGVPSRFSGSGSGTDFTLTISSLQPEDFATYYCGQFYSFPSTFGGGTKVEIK VH: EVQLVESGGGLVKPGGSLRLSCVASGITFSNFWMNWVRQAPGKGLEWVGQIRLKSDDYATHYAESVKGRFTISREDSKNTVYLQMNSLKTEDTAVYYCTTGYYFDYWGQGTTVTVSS is ____.
Resp: 142
